- Measured target: UniProtKB P06276
- Sequence (P06276 whole entry): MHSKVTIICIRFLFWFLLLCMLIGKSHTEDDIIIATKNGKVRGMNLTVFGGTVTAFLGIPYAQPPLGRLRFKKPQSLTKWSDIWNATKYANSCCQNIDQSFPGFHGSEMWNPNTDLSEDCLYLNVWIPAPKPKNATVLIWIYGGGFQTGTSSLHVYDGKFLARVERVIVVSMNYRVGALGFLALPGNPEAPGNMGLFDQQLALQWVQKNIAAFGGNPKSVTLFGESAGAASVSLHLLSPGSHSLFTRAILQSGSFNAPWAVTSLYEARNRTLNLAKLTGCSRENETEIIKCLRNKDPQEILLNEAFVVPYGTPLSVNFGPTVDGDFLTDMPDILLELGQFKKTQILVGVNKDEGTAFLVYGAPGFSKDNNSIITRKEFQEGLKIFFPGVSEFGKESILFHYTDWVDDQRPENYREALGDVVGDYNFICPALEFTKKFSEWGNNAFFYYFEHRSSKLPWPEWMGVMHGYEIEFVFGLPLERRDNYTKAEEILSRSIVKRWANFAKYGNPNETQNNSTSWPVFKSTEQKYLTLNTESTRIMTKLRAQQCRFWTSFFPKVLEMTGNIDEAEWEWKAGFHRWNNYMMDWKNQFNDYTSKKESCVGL
- Method summary: In vitro inhibition of human serum Butyrylcholinesterase using butyrylthiocholine as substrate; 0.00029-0.001
Quantity measured: IC50 (nM)
Field: numeric (nM). Do not append units.

## Task # query: IC50 of entry CCCCCCCNC(=O)Oc1ccc2c(c1)[C@]1(C)CCN(C)[C@@H]1N2C
## Result 0.69

---

Recorded inhibition for the following molecules
- Measured target: Acetylcholinesterase (Rattus norvegicus) (UniProt P37136)
- Sequence (whole entry): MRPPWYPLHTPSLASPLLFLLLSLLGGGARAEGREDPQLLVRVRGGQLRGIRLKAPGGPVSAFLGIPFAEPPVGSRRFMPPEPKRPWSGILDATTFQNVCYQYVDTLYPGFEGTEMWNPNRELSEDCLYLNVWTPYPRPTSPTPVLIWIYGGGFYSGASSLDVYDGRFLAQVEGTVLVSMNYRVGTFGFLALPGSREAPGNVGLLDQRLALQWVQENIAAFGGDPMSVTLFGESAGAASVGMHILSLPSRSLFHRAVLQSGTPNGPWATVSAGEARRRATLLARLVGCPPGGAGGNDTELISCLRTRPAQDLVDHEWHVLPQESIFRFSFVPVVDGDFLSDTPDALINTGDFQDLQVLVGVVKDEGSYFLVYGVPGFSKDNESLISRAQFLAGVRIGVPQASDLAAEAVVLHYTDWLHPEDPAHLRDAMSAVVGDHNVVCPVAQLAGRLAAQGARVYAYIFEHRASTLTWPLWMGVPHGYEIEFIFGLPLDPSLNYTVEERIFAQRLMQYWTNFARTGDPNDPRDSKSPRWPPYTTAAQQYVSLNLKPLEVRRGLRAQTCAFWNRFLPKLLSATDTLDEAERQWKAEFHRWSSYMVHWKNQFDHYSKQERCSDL
- Method summary: Tested for percent ex vivo inhibition of rat striatal acetylcholinesterase at peroral dose of 20 mg/kg at 24 hr
- Assay type: organism-based
- Set-up: dose 20 mg/kg
Field: numeric (%). Do not append units.

Below, each entry is followed by its recorded inhibition result.
> print(dat)
                                smiles.code  quantity.measured  value.measured
1  CCCN(c1ccncc1F)n1cc(C)c2cc(OC(=O)NCc3ccccc3)ccc21         inhibition               2
2      CNC(=O)Oc1ccc2c(c1)c(C)cn2Nc1ccncc1F         inhibition              20
3  CCCCNC(=O)Oc1ccc2c(c1)c(C)cn2N(CCC)c1ccncc1F         inhibition              11

Please look at the following molecule next.
## Task Param readout = inhibition; param system = Acetylcholinesterase (Rattus norvegicus) (UniProt P37136); param query = CCCN(c1ccncc1F)n1cc(C)c2cc(OC(=O)NC)ccc21 ; response: value
## Result 9
